Target: HIV protease (Human immunodeficiency virus type 1 group M subtype B, UniProt P04585)
pIC50: −log10 of the molar value.
MEASURED_METRIC: pIC50

>>> print(df.to_string())
                                   compound  quantitative_readout
0  O=C1N(Cc2ccc(CO)cc2)[C@@H](Cc2ccccc2)P(=O)(O)[C@@H](Cc2ccccc2)N1Cc1ccc(CO)cc1 [Example 12]                  5.32
